# procedure_text: High Content Assay for Compounds that inhibit the Assembly of the Perinucleolar Compartment
# assay_context: PC3M PTB-GFP, PNC prevalence imaging, 16 h; at 10 µM; active compounds read low
In all, about 140,000 compounds went through this assay and about 4,300 (3.1%) were called active. About 21% were inconclusive and are not listed. The sample as a whole holds a higher share of actives than the screen did.
recorded_metric: activity change (PNC), negative = inhibition (%)
Reply numerically in %, unit not repeated.

Before answering, review these 4 worked examples.
>>> result("OCCCN1c2ccccc2Nc2nnc(-c3ccccc3)cc21")
-15.1
>>> result("C=CCn1c(SCc2csc(C)n2)nc2scc(-c3ccc(C)o3)c2c1=O")
-99.5
>>> result("CC1CCN(S(=O)(=O)c2ccc(S(=O)(=O)NCc3ccco3)cc2)CC1")
-100
>>> result("O=C(Nc1ccc([N+](=O)[O-])cc1)C1(c2ccccc2)CCOCC1")
5.8

Quick one: activity change (PNC), negative = inhibition of COc1ccccc1N1CCN(Cc2nnnn2CCc2ccccc2)CC1 ?
-5.45

Quick one: activity change (PNC), negative = inhibition of Cc1ccc(C(C[N+](=O)[O-])c2c(C)cc3ccccn23)cc1 (configuration not stated) ?
-2.04

Quick one: activity change (PNC), negative = inhibition of CCOc1cccc(-n2nnnc2-c2ccc(OC)cc2)c1 ?
-83.5

* * *

# procedure_text: High Content Assay for Compounds that inhibit the Assembly of the Perinucleolar Compartment
# assay_context: PC3M PTB-GFP, PNC prevalence imaging, 16 h; at 10 µM; active compounds read low
The campaign covered roughly 140,000 compounds. About 4,300 (3.1%) were called active. Roughly 21% stayed inconclusive and do not appear here. For the sample, actives were picked, then their nearest neighbours and some compounds at random.
recorded_metric: activity change (PNC), negative = inhibition (%)
Reply numerically in %, unit not repeated.

Before answering, review these 5 worked examples.
>>> result("Oc1ccc(Br)cc1C=Nc1ccc2[nH]ncc2c1")
18.8
>>> result("COc1ccc(NC(=O)COC(=O)c2ccc(NS(=O)(=O)/C=C/c3ccccc3)cc2)cc1")
-91.4
>>> result("COc1ccc(OCC(=O)N2CCOCC2)cc1")
-29.5
>>> result("Cn1c(=O)cc(OCCCC(=O)N2CCN(Cc3ccc4c(c3)OCO4)CC2)c2ccccc21")
19.5
>>> result("CCC(C(=O)OCC(=O)Nc1ccc(C(=O)Nc2ccc(OC)cc2)cc1)c1ccccc1 (stereo unspecified)")
12.6

Attention now turns to another entry.
Quick one: activity change (PNC), negative = inhibition of Cc1cccc(OCCNC(=S)NC(=O)c2cccnc2)c1 ?
17.2

* * *

# procedure_text: High Content Assay for Compounds that inhibit the Assembly of the Perinucleolar Compartment
# assay_context: PC3M PTB-GFP, PNC prevalence imaging, 16 h; at 10 µM; active compounds read low
Out of some 140,000 compounds screened, about 4,300 (3.1%) were called active. About 21% were inconclusive and are not listed. This excerpt belongs to a sample that is enriched for actives.
recorded_metric: activity change (PNC), negative = inhibition (%)
Reply numerically in %, unit not repeated.

>>> result("CCOC(=O)C1C(=O)NC(N2CCN(c3ccccc3)CC2)=NC1c1ccco1 (stereo not drawn)")
-90
>>> result("Cc1c(NC(=O)Nc2ccccc2Cl)sc(=S)n1C")
-119
>>> result("CC(=O)NC1=NN(C(C)=O)C(C)(c2ccc(C)cc2)S1 (stereo not drawn)")
54.1
>>> result("CC1(C)C(C=C(Cl)Cl)C1C(=O)N(Cc1ccc(Cl)cc1)C1CCS(=O)(=O)C1 (stereo not drawn)")
32.1
>>> result("CCC1CCCCN1C(=S)Nc1ccc(C(C)=O)cc1 (stereo not drawn)")
83.7

Quick one: activity change (PNC), negative = inhibition of COc1ccc(/C=C/C(=O)NC(=S)NN2CCCCC2c2cccnc2)cc1 (stereo not drawn) ?
-29.3

Quick one: activity change (PNC), negative = inhibition of Cc1nn(Cc2ccc(F)cc2)c(C)c1NC(=O)c1cccnc1Cl ?
-102

Quick one: activity change (PNC), negative = inhibition of COc1ccc(S(=O)(=O)N2CCC(C(=O)N3CCOCC3)CC2)cc1OC ?
-7.88

Quick one: activity change (PNC), negative = inhibition of COc1ccc(C(=O)NC2(C(F)(F)F)NC(=O)N(CCCc3ccccc3)C2=O)c(OC)c1OC (stereo not drawn) ?
-8.14

Quick one: activity change (PNC), negative = inhibition of O=C(CN1C2=NCCN2c2ccccc21)c1cccs1 ?
-2.86

Quick one: activity change (PNC), negative = inhibition of CCOC(=O)C1CCN(C(=O)/C=C/c2cc(OC)c(OC)c(OC)c2)CC1 ?
5.16

Quick one: activity change (PNC), negative = inhibition of Cc1ccccc1CN(c1ccc(C(=O)NCC2CCCO2)cc1)S(C)(=O)=O (stereo not drawn) ?
-1.65

Quick one: activity change (PNC), negative = inhibition of COc1ccc(S(=O)(=O)N2CCN(C(=O)c3cccs3)CC2)cc1OC ?
-15.3

Quick one: activity change (PNC), negative = inhibition of COCCNC(=O)COc1ccc(C)c(C)c1 ?
-16.6

Quick one: activity change (PNC), negative = inhibition of O=C(c1cc(-c2ccc(O)cc2)on1)N1CCCc2ccccc21 ?
-28.7

* * *

# procedure_text: High Content Assay for Compounds that inhibit the Assembly of the Perinucleolar Compartment;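 note: plate controls were DMSO wells for no effect and camptothecin positive control wells for full effect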
# assay_context: PC3M PTB-GFP, PNC prevalence imaging, 16 h; at 10 µM
In all, about 140,000 compounds went through this assay and about 4,300 (3.1%) were called active. Roughly 21% stayed inconclusive and do not appear here.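 How the source made its calls: active means readout at or below -70, meaning at least 70% loss of cells showing the perinucleolar compartment, a nuclear body marking cancer cells; inconclusive means readout between -30 and a set limit; inactive means the rest.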 Only a selection was taken, and actives are over-represented in it overall.
Pick one: Y (active), N (inactive)

>>> label("COc1ccc(S(=O)(=O)Nc2ccc(S(=O)(=O)N3CCCCC3)cc2)cc1OC")
"Y"

Status in this test for CN(CC(=O)NCCc1ccccc1)S(=O)(=O)c1cnc[nH]1 ?
N

Status in this test for Cc1cc(C)nc(SC2CCCCC2NS(=O)(=O)c2ccc(Cl)cc2)n1 (configuration not stated) ?
Y

* * *

# procedure_text: High Content Assay for Compounds that inhibit the Assembly of the Perinucleolar Compartment;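 note: plate controls were DMSO wells for no effect and camptothecin positive control wells for full effect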
# assay_context: PC3M PTB-GFP, PNC prevalence imaging, 16 h; at 10 µM; active compounds read low
Hit rate of the full screen: of about 140,000 compounds, about 4,300 (3.1%) were called active. Not shown: some 21% with an inconclusive outcome. The sample as a whole holds a higher share of actives than the screen did.
recorded_metric: activity change (PNC), negative = inhibition (%)
Reply numerically in %, unit not repeated.

>>> result("O=C(Nc1nnc(SCc2ccc(Cl)cc2Cl)s1)C1COc2ccccc2O1 (centres undefined)")
43
>>> result("CC(=O)Nc1ccc(/C(C)=N/NC(=O)CN(c2ccccc2Br)S(C)(=O)=O)cc1")
-2.45
>>> result("N#CCOc1ccc(C2=NO[C@@H]3[C@@H]4C[C@@H]([C@H]5C(=O)N(c6ccc7c(c6)OCO7)C(=O)[C@@H]45)[C@H]23)cc1")
-91.1
>>> result("CCCCOc1ccc(CSC(=N)N)cc1[N+](=O)[O-]")
-6.06
>>> result("CC(C)CNC(=O)COC(=O)/C=C/c1ccco1")
0.199

Quick one: activity change (PNC), negative = inhibition of S=C(NCCc1ccccc1)NCc1ccccc1Cl ?
29.5

Quick one: activity change (PNC), negative = inhibition of COc1cc2c(cc1OC)C(=O)NCC(C)(C)O2 ?
47.7

Quick one: activity change (PNC), negative = inhibition of CCCOc1ccc(Cn2ccnc2)cc1[N+](=O)[O-] ?
-21.9

Quick one: activity change (PNC), negative = inhibition of COCCOC(=O)c1c(C)oc2cc(Br)c(OCC(N)=O)cc12 ?
-7.11

* * *

# procedure_text: High Content Assay for Compounds that inhibit the Assembly of the Perinucleolar Compartment;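 note: plate controls were DMSO wells for no effect and camptothecin positive control wells for full effect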
# assay_context: PC3M PTB-GFP, PNC prevalence imaging, 16 h; at 10 µM; active compounds read low
Screen size: about 140,000 compounds; about 4,300 (3.1%) were called active. Another 21% or so got no clear call; they are omitted. The sample as a whole holds a higher share of actives than the screen did.
Reported activity change (PNC), negative = inhibition values for a set of compounds
Reply numerically in %, unit not repeated.

Before answering, review these 2 worked examples.
>>> result("O=C(CN1CCOCC1)N1CCCc2c1c(=O)oc1ccc(OCc3ccccc3)cc21")
-90.3
>>> result("CCc1nc(N2CCN(c3nc(C)cc(C)n3)CC2)c2oc3ccccc3c2n1")
-21.5

Quick one: activity change (PNC), negative = inhibition of CCOC(=O)/C=C/C(=O)OCC(=O)NC(c1ccccc1)c1ccccc1 ?
-28.2

* * *

# procedure_text: High Content Assay for Compounds that inhibit the Assembly of the Perinucleolar Compartment;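 note: plate controls were DMSO wells for no effect and camptothecin positive control wells for full effect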
# assay_context: PC3M PTB-GFP, PNC prevalence imaging, 16 h; at 10 µM
# Method: High Content Assay for Compounds that inhibit the Assembly of the Perinucleolar Compartment NIH Chemical Genomics Center [NCGC] NIH Molecular Libraries Probe Centers Network [MLPCN] […] PNC High Content Imaging Assay Procedure: 1. […] PNC prevalence was determined using the Multitarget analysis module from InCell Workstation software (V3.5 ) and analysis was run on a quad core workstation using the Incell Developer Toolbox (V1.7). […]
Screen size: about 140,000 compounds; about 4,300 (3.1%) were called active. Another 21% or so got no clear call; they are omitted.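 How the source made its calls: active means readout at or below -70, meaning at least 70% loss of cells showing the perinucleolar compartment, a nuclear body marking cancer cells; inconclusive means readout between -30 and a set limit; inactive means the rest.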 Only a selection was taken, and actives are over-represented in it overall.
Pick one: active, inactive

Worked cases, answers included:
>>> label("Cc1ccc(S(=O)(=O)N(NC2=NS(=O)(=O)c3ccccc32)C(=O)c2ccccc2)cc1")
"inactive"
>>> label("COc1ccc(C(CC(=O)O)NC(=O)Cc2ccccc2)cc1 (stereo not drawn)")
"inactive"
>>> label("Cn1cc(C(=O)NCc2ccccc2F)cn1")
"inactive"
>>> label("CCOc1ccc(OCC)c(-c2c(=O)n(OCc3ccc(Cl)cc3)c3ccccc3[n+]2[O-])c1")
"inactive"
>>> label("COc1ccc(NC(=O)Nc2ccc3nsnc3c2)cc1")
"inactive"

Status in this test for CC(OC(=O)c1ccccc1N1C(=O)C2C3CCC(C3)C2C1=O)C(=O)c1ccccc1 (stereo not drawn) ?
inactive

Status in this test for CCCCNc1nc2c(c(=O)n(C)c(=O)n2C)n1Cc1cccc(OC)c1 ?
inactive

Status in this test for O=C(NCc1cccnc1)c1cn(-c2ccccc2)nc1-c1cccs1 ?
active

Status in this test for CCn1c(SCC(=O)Nc2ccccc2F)nc2c(c1=O)SC(C)C2 (stereo not drawn) ?
active

Status in this test for COC1=CCC2([N+](=O)[O-])CN(CC(=O)O)CC1([N+](=O)[O-])C2 (stereo not drawn) ?
inactive

Status in this test for Cc1cc(C(=O)NNC(=S)NC(C)c2ccccc2)cs1 (stereo not drawn) ?
inactive

Status in this test for NC1=NC(=O)C(Cc2cccc(Cl)c2)S1 (stereo not drawn) ?
inactive

Status in this test for Cc1[nH]c2ccccc2c1/C=N\NC(=O)Cn1nnc(-c2ccccc2)n1 ?
inactive

Where these numbers come from: PubChem BioAssay AID2417
